- Organism: Mus musculus
- experiment-notes: Compound (62.5 p.p.m.) was tested for percent reduction of Nematospiroides dubius in mice
- Type: functional
readout-label: Reduction (%)
Enter your answer as a number in %; do not include the unit.

# example entries with known answers
• c1ccc2[nH]c(-c3cscn3)nc2c1 = 0
• COC(=O)Nc1cn2cc([S+]([O-])c3ccccc3)ccc2n1 (stereo not given) = 90
• COC(=O)Nc1cn2cc(Sc3ccccc3)ccc2n1 = 20
• CC(C)OC(=O)Nc1ccc2[nH]c(-c3cscn3)nc2c1 = 0

Let us move to another entry and its Reduction.
I'd like to know its Reduction. The compound in question is `COC(=O)Nc1nc2cc(Sc3ccccc3)ccc2[nH]1`
0

----------
- Species: Mus musculus
- experiment-notes: Compound (250 p.p.m.) was tested for percent reduction of Nematospiroides dubius in mice
- Type: functional
Below, each entry is listed alongside its reported Reduction.

I'd like to know its Reduction. The compound in question is `COC(=O)Nc1cn2cc(Sc3ccccc3)ccc2n1`
98%

Now try `c1ccc2[nH]c(-c3cscn3)nc2c1` .
0%

Now try `CC(C)OC(=O)Nc1ccc2[nH]c(-c3cscn3)nc2c1` .
20%

Now try `COC(=O)Nc1nc2cc(Sc3ccccc3)ccc2[nH]1` .
97%

Now try COC(=O)Nc1cn2cc([S+]([O-])c3ccccc3)ccc2n1 (stereo not given) .
100%

From: ChEMBL document CHEMBL1121877
